# Test system: U251
# assayComment: Alamar blue cell viability assay, U251 cells
# Type: cell-based
# experimentalConditions: Homo sapiens, U-251; 72 hours of treatment; mean±SEM, three independent experiments
pEC50: −log10 of the molar value.
propertyMeasured: pEC50

[
  {
    "smilesStructure": "COc1ncc(-c2ccc(CCCC(=O)Nc3ccc(O)cc3)cc2)cn1",
    "result": "< 5.00"
  },
  {
    "smilesStructure": "O=C(CCCc1ccc(-c2cncnc2)cc1)Nc1ccc(O)cc1",
    "result": "< 5.00"
  },
  {
    "smilesStructure": "O=C(CCCc1ccc(-c2ccc(F)nc2)cc1)Nc1ccc(O)cc1",
    "result": "< 5.00"
  },
  {
    "smilesStructure": "O=C(CCCc1ccc(Br)cc1)Nc1ccc(O)cc1",
    "result": "< 5.00"
  }
]
